test system: PC3 human prostate adenocarcinoma; assay: Cell growth, resazurin assay, PC3; type: cell-based; conditions: Homo sapiens; 96-h exposure (table title)
readout_label: IC50
// unit must come after the numeric part

*Q* Look at this compound and give its reported IC50. `COc1cccc2c1C(=O)c1c(O)c3c(c(O)c1C2=O)C[C@@](O)(C(=O)CO)C[C@@H]3O[C@H]1C[C@H](N)[C@H](O)[C@H](C)O1`
*A* 41 nM

* * *

test system: A2780 human ovarian cancer cell line; test: Cell growth, resazurin assay, A2780; assay type: cell-based; details: A2780, 72-h exposure
# pIC50 per record follows
pIC50 is defined as minus the log10 of a concentration measured in mol/L.

*Q* # query: pIC50 | item COc1cccc2c1C(=O)c1c(O)c3c(c(O)c1C2=O)CC(O)(C(=O)CO)CC3OC1CC(N)C(N)C(C)O1.O=C1[O][Pt][O]C1=O (centres unmarked) [DoxPt, Doxaliplatin] | system: A2780 human ovarian cancer cell line
*A* 7.80

***
*Q* Provide value of pIC50 for this record tested with A2780 human ovarian cancer cell line: O=C1[O][Pt]2([NH][C@@H]3CCCC[C@H]3[NH]2)[O]C1=O [Ox, oxaliplatin]
*A* 6.77
